Target: CYP2C19 (Homo sapiens, UniProt P33261)
Sequence (P33261 whole entry): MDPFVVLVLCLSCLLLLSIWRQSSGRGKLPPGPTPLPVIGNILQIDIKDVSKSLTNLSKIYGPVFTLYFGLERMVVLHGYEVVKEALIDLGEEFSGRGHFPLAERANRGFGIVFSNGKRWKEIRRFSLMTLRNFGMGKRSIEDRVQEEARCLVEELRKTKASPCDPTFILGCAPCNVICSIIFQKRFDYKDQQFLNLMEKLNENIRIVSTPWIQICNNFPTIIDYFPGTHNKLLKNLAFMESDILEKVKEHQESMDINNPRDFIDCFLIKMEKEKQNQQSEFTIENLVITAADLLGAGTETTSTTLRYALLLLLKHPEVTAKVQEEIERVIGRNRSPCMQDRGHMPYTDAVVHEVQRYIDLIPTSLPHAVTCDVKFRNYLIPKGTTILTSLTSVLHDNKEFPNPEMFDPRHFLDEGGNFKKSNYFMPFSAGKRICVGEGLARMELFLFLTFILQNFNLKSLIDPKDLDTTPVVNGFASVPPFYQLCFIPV
Assay: Inhibition of CYP2C19 (unknown origin) at 10 uM relative to control
Format: ADME
OBSERVABLE: inhibition at 10 µM

Data request, read-out inhibition at 10 µM, for CCCCC(N)C(=O)NCCc1ccc(-c2ccc(Cl)c(Cl)c2)cc1.Cl (racemic) > 70%

###

Assay: Stability in human liver microsomes assessed as parent compound remaining after 30 mins
Type: ADME, Microsome
Settings: read-out: Stability
OBSERVABLE: remaining at 0.5 h

Worked set:
| MOLECULE | remaining at 0.5 h |
| --- | --- |
| CCCC(N)C(=O)NCCc1ccc(-c2ccc(F)c(F)c2)cc1.Cl (racemic) | > 85% |
| CCCCC(NC)C(=O)NCCc1ccc(-c2ccc(Cl)c(Cl)c2)cc1.Cl (racemic) | > 85% |
| CCCC(N)C(=O)NCCc1ccc(-c2ccc(Cl)c(Cl)c2)cc1.Cl (racemic) | 90% |
| CCCC(NC)C(=O)NCCc1ccc(-c2ccc(Cl)c(Cl)c2)cc1.Cl (racemic) | > 85% |

Shift focus to the following entry.
Which remaining at 0.5 h value is on record for CCCCC(N)C(=O)NCCc1ccc(-c2ccc(Cl)c(Cl)c2)cc1.Cl (racemic) ? > 85%
